Target: T1, recombinant human NGF protein (human, UniProt P01138 122-241)
T1 construct: Bought protein; also called nerve growth factor; biotin-labeled human NGF
T1 sequence (P01138 122-241 limits assumed): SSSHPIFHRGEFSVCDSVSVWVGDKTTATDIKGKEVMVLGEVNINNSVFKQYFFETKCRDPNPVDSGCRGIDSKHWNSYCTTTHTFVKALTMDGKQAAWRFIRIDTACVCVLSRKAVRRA
Experiment: ELISA, human NGF coated
I'd appreciate it if you could supply EC50 values for the items below.
Answers are plain numbers, in pM.

[
  {
    "Binder": "human-mouse chimeric antibody 138E12-Chi (antibody, V domains shown, the constant regions are not specified) VH: QVQLKESGPGLVAPSQSLSITCTVSGFSLTGYGVNWVRQPPGKGLEWLGMIWFDGSTDYNSALKSRLSISKDNSKSQVFLKMNSLQTDDTARYYCAREGYYYGTTYYFDYWGQGTTLTVSS VL: DIQMTQTTSSLSASLGDRVTISCRASQDISNYLNWYQQKPDGTVKLLIYYTSRLHSGVPSRFSGSGSGTDYSLTISNLEQEDIATYFCQQGNTLPRTFGGGTKLEIK",
    "EC50 [pM]": 45.4
  }
]

Provide each entry's EC50 from the list below.
1. humanized anti-NGF antibody 138E12-08 (antibody, V domains shown) VH: QVQLQESGPGLVKPSETLSLTCTVSGFSLTGYGVNWIRQPPGKGLEWIGMIWFEGSTDYNSALKSRVTISKDNSKSQVSLKLSSVTAADTAVYYCAREGYYYGTTYYFDYWGQGTTVTVSS VL: DIQMTQSPSSLSASVGDRVTITCRASQDISNYLNWYQQKPGKAPKLLIYYTSRLHSGVPSRFSGSGSGTDYTLTISSLQPEDFATYFCQQGNTLPRTFGGGTKVEIK
2. humanized anti-NGF antibody 138E12-10 (antibody, V domains shown) VH: QVQLQESGPGLVKPSETLSLTCTVSGFSLTGYGVNWIRQPPGKGLEWIGMIWFEGSTDYQSALKSRVTISKDNSKSQVSLKLSSVTAADTAVYYCAREGYYYGTTYYFDYWGQGTTVTVSS VL: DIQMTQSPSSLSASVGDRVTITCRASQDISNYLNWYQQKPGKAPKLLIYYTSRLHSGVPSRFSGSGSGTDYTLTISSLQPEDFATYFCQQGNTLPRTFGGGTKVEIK
3. humanized anti-NGF antibody 138E12-11 (antibody, V domains shown) VH: QVQLQESGPGLVKPSETLSLTCTVSGFSLTGYGVNWIRQPPGKGLEWLGMIWFEGSTDYQSALKSRLTISKDNSKSQVSLKLSSVTAADTAVYYCAREGYYYGTTYYFDYWGQGTTVTVSS VL: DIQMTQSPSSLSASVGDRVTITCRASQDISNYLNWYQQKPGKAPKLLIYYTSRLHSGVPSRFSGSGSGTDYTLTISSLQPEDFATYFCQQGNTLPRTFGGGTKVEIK
4. humanized anti-NGF antibody 43E5-01 (antibody, V domains shown, Humanized antibody expressed in CHO cells) VH: QVQLVQSGAEVKKPGASVKVSCKASGYTFTDYEMHWVRQAPGQGLEWMGAIDPETGGTAYNQKFKGRVTMTADKSISTAYMELSRLRSDDTAVYYCRRGANLNHYGNDEGSYWGQGTLVTVSS VL: DVVMTQSPLSLPVTLGQPASISCKSSQSLLHSVGKTYLNWLQQRPGQSPRRLIYLVSKLDSGVPDRFSGSGSGTDFTLKISRVEAEDVGVYFCWQGTHLPQTFGGGTKVEIK

Response:
[25.3, 18.4, 32.4, 229]

Reported EC50 ( humanized anti-NGF antibody 138E12-01 (antibody, V domains shown, Humanized antibody expressed in CHO cells) VH: QVQLQESGPGLVKPSETLSLTCTVSGFSLTGYGVNWIRQPPGKGLEWIGMIWFDGSTDYNSALKSRVTISKDNSKSQVSLKLSSVTAADTAVYYCAREGYYYGTTYYFDYWGQGTTVTVSS VL: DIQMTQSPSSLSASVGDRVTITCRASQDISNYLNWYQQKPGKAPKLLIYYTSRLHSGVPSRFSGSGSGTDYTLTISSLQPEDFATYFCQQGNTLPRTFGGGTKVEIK ) = 40.3
